System: asexual P. falciparum 3D7 parasites
protocol text: P. falciparum 3D7 growth inhibition assay with LDH activity readout (Assay 1)
Format: cell-based
experimental conditions: Plasmodium falciparum; 3D7 strain, 72 h incubation, LDH activity read by absorbance at 650 nm
pIC50: −log10 of the molar value.
Quick reference: pIC50 of the listed items.
measurement name: pIC50

[
  {
    "compound": "Cc1ccc(C2(C3CCCCC3)NC(=N)N(Cc3ccc(C(C)(C)C)c(C(=O)N4Cc5ccccc5C4)c3)C2=O)cc1 (centres unmarked)",
    "numeric readout": 6.66
  },
  {
    "compound": "CC(C)CC[C@]1(c2ccccc2)NC(=N)N(Cc2ccc(C(F)(F)F)c(C(=O)N3CC(O)C(F)C3)c2)C1=O (some centres unmarked)",
    "numeric readout": 8.02
  },
  {
    "compound": "CC(C)CC[C@]1(c2ccccc2)NC(=N)N([C@@H]2CCc3ccc(C(=O)N4Cc5nccnc5C4)cc32)C1=O",
    "numeric readout": 7.66
  },
  {
    "compound": "N=C1NC(c2ccc(F)cc2)(C2CCCCC2)C(=O)N1Cc1ccc(C(F)(F)F)c(C(=O)N2Cc3nccnc3C2)c1 (centres unmarked)",
    "numeric readout": 8.01
  },
  {
    "compound": "CC(C)CC[C@]1(c2ccccc2)NC(=N)N(Cc2ccc(C(C)(C)C)c(C(=O)N(C)Cc3noc(C4CC4)n3)c2)C1=O",
    "numeric readout": 6.51
  }
]

* * *

Tested on: asexual P. falciparum 3D7 parasites
protocol text: P. falciparum 3D7 growth inhibition assay with LDH activity readout (Assay 1)
Type: cell-based
experimental conditions: Plasmodium falciparum; 3D7 strain, 72 h incubation, LDH activity read by absorbance at 650 nm
pIC50: −log10 of the molar value.

[
  {
    "compound": "CC(C)CC[C@]1(c2ccccc2)NC(=N)N(Cc2ccc(C(C)(C)C)c(C(=O)N(C)Cc3ccon3)c2)C1=O",
    "measured target": "asexual P. falciparum 3D7 parasites",
    "pIC50": 6.92
  },
  {
    "compound": "Cc1ccc([C@@]2(CC3CC3)NC(=N)N(Cc3ccc(C(C)(C)C)c(C(=O)N4CCC(C)(C)C4)c3)C2=O)cc1",
    "measured target": "asexual P. falciparum 3D7 parasites",
    "pIC50": 7.06
  },
  {
    "compound": "Cc1ccc(CN2C(=N)NC(CC(C)C)(c3ccccc3)C2=O)cc1C(=O)NC1CC1 (stereo not shown)",
    "measured target": "asexual P. falciparum 3D7 parasites",
    "pIC50": 6.62
  },
  {
    "compound": "CC(C)CC[C@]1(c2ccccc2)NC(=N)N(Cc2ccc(C(C)(C)C)c(C(=O)NCc3cccnc3)c2)C1=O",
    "measured target": "asexual P. falciparum 3D7 parasites",
    "pIC50": 6.76
  },
  {
    "compound": "Cc1ccc(C2(c3ccc(C)cc3)NC(=N)N(Cc3ccc(C(C)(C)C)c(C(=O)N4Cc5nccnc5C4)c3)C2=O)cc1",
    "measured target": "asexual P. falciparum 3D7 parasites",
    "pIC50": 6.65
  },
  {
    "compound": "CCOC(=O)NC1CCN(C(=O)c2cc(C)cc(CN3C(=N)NC(c4ccccc4)(c4ccccc4)C3=O)c2)CC1",
    "measured target": "asexual P. falciparum 3D7 parasites",
    "pIC50": 6.50
  },
  {
    "compound": "CC(C)(C)c1ccc(CN2C(=N)NC(c3ccccc3)(c3ccccc3)C2=O)cc1C(=O)N1Cc2nccnc2C1",
    "measured target": "asexual P. falciparum 3D7 parasites",
    "pIC50": 6.62
  }
]

* * *

System: asexual P. falciparum 3D7 parasites
protocol text: P. falciparum 3D7 growth inhibition assay with LDH activity readout (Assay 1)
Type: cell-based
experimental conditions: Plasmodium falciparum; 3D7 strain, 72 h incubation, LDH activity read by absorbance at 650 nm
pIC50: −log10 of the molar value.
Property: pIC50; scope: individual compounds

[
  {
    "compound": "CC(C)CC[C@]1(c2ccccc2)NC(=N)N(Cc2ccc(C(C)(C)C)c(C(=O)N3CCn4ccnc4C3)c2)C1=O",
    "pIC50": 7.67
  },
  {
    "compound": "N=C1NC(C[C@@H]2CCCO2)(c2ccccc2)C(=O)N1Cc1ccc(C(F)(F)F)c(C(=O)N2Cc3nccnc3C2)c1 (stereo partly shown)",
    "pIC50": 8.24
  },
  {
    "compound": "CC(C)CC[C@]1(c2ccccc2)NC(=N)N(Cc2ccc(C(C)(C)C)c(C(=O)N3CCOC[C@@H]3C)c2)C1=O",
    "pIC50": 7.25
  },
  {
    "compound": "Cc1cc(CN2C(=N)NC(c3ccccc3)(c3ccccc3)C2=O)cc(C(=O)N2CCNC(=O)C2)c1",
    "pIC50": 6.45
  },
  {
    "compound": "CC(=O)N1CCN(C(=O)c2cc(F)cc(CN3C(=N)NC(c4ccccc4)(c4ccccc4)C3=O)c2)CC1",
    "pIC50": 8.35
  },
  {
    "compound": "Cc1ccc(C2(CCC(C)C)NC(=N)N(Cc3ccc(C(C)(C)C)c(C(=O)N4Cc5cncnc5C4)c3)C2=O)cc1 (stereo not shown)",
    "pIC50": 6.65
  },
  {
    "compound": "CC(C)CC[C@]1(c2ccccc2)NC(=N)N(Cc2ccc(C(C)(C)C)c(C(=O)N(C)C(C)c3ccncc3)c2)C1=O (stereo partly shown)",
    "pIC50": 7.60
  }
]
